- System: SR leukemia
- method.description: NCI-60 one-dose screen, 48 h
- experimental.setup: 10 µM unless noted
About 83,000 compounds went through this panel and 20% of them were active in at least one assay; those are over-represented in the sample as a whole. Activity calls are given as the source filed them. Rule for the calls: active = growth percent below 10; inactive = the rest.
Hello, when you answer, please use one of the following outcomes: Yes = active, No = inactive

Below are worked cases with known answers.
{"columns": ["structure.notation", "answer.label"],
 "data": [
  ["CC(C)C[C@H](C(=O)N[C@H](C(N)=O)C(C)C)N1CC=CCN(OCc2ccccc2)S1(=O)=O", "No"],
  ["O=C(Nc1ccc(N2CCNCC2)cn1)c1[nH]ncc1Nc1ncnc2sccc12", "Yes"],
  ["COc1ccc(N)c(-c2cc3c(c4c2[nH]c2ccc(OC)cc24)CCCC3)c1", "No"],
  ["CCOC(=O)c1ccc(N=Cc2sc(=O)[nH]c2O)cc1", "No"],
  ["CCOC(=O)c1cnc2c(C)cccc2c1Nc1ccc(C(C)=O)cc1", "Yes"],
  ["S=C1CCCC(=S)N1", "No"]
]}

Query: Recorded call for "Nc1ccc(-c2nc3cc(Oc4ccc(Oc5ccc6[nH]c(-c7ccc(N)cc7)nc6c5)cc4)ccc3[nH]2)cc1" ?
Result: No

Query: recorded result category for "Brc1ccc(Nc2nc3ccccc3nc2Nc2ccc(Br)cc2)cc1" in this test
Result: Yes

Query: # fetch the recorded call for "O=C(NCCCN1CCC(N2CCCCC2)CC1)C1=Cc2cc(Br)ccc2OC1" here
Result: No

Query: Name the outcome recorded for "O=c1c2cc(F)ccc2sc2c(Nc3ccncc3)nc3ccccc3c12" in the assay.
Result: Yes

* * *

- System: HOP-92 NSCLC
- method.description: NCI-60 one-dose screen, 48 h
- experimental.setup: 10 µM unless noted
Compounds without any hit were thinned out: in the full panel of roughly 83,000, 20% have a hit. The source made the active and inactive calls. How the source made its calls: active means growth percent below 10; inactive means the rest.
Parameter call: string, one of active, inactive

Query: Assay outcome for "O=c1cc(-c2ccccc2)oc2cc(OCc3cn(Cc4ccc(F)cc4)nn3)cc(OCc3cn(Cc4ccc(F)cc4)nn3)c12" : what was it?
Result: active

* * *

- System: RPMI-8226 leukemia
- method.description: NCI-60 one-dose screen, 48 h (100 = growth as untreated, 0 = no growth, -100 = all killed)
- experimental.setup: 10 µM unless noted
About 83,000 compounds went through this panel and 20% of them were active in at least one assay; those are over-represented in the sample as a whole.
quantity.measured: growth (%)
Response body: numeric value in %, unit text excluded.

Query: Using the record for "N#C/C(=C1\SC(=O)CN1c1ccccc1)c1nc2ccccc2s1" , report its growth.
Result: 83.7

Query: Entry "NC(CCl)=NCCC[C@H](N)C(=O)O" has what growth?
Result: 99.6

Query: What growth value was documented for this compound, S=C1NC2(c3ccccc3)CCC(=S)N2c2ccccc21 (stereo unspecified) ?
Result: 103

* * *

- System: UO-31 renal
- method.description: NCI-60 one-dose screen, 48 h (100 = growth as untreated, 0 = no growth, -100 = all killed)
- experimental.setup: 10 µM unless noted
Compounds without any hit were thinned out: in the full panel of roughly 83,000, 20% have a hit.
A collection of molecules and their measured growth
Express it in %; write the number only.

Query: Endpoint output: growth of "COc1ccc(/C=C2\SC(=Nc3ccccc3)NC2=O)cc1" . Value?
Result: -98.3

Query: Field request: growth | item: "CC1=C(CC(=O)c2cccc([N+](=O)[O-])c2)C(=O)c2ccccc2C1=O"
Result: -64.3

Query: Look at this molecule and give its reported growth. "N#C/C(=C1\SC(=O)CN1c1ccccc1)c1nc2ccccc2s1"
Result: 53.2

Query: Any idea what growth was measured for "NCCNc1nc2ccc(F)cc2c2c(=O)c3cc(F)ccc3sc12" ?
Result: 35.6
